TESTED SYSTEM: Voltage-gated inwardly rectifying potassium channel KCNH2 (Homo sapiens)
METHOD DESCRIPTION: qHTS Assay for Small Molecule Inhibitors of the Human hERG Channel Activity (AID 588834);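 note: lower thallium flux fluorescence means stronger hERG block; nearly all actives have a fitted effect of over 50% in size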
MEASUREMENT CONTEXT: U2OS BacMam hERG, FluxOR thallium flux fluorescence; series mostly up to 46.1 µM
Inconclusive results are not listed. The source made the active and inactive calls. Calls come from the whole dose curve; as a rule, active = well fitted inhibition curve with a large enough effect; inconclusive = small, poorly fitted or top-dose-only effect; inactive = flat fitted curve, though single readings scatter.
// one of true (1) for active, false (0) for inactive, no free text

The following compounds have reported results that may help.
{"COMPOUND": "CCN1CCCC(OC(=O)C(c2ccccc2)c2ccccc2)C1 (stereo not given)", "GROUP LABEL": "true (1)"}
{"COMPOUND": "CCN[C@@H]1C[C@H](N)[C@@H](OC2OC(CN)=CCC2N)[C@H](O)[C@H]1O[C@H]1OC[C@](C)(O)[C@H](NC)[C@H]1O (stereo not given in full)", "GROUP LABEL": "false (0)"}
{"COMPOUND": "CC(=O)Nc1ccc(CC(=O)O)cc1", "GROUP LABEL": "false (0)"}
{"COMPOUND": "Nc1ccc(C(=O)NCC(=O)O)cc1", "GROUP LABEL": "false (0)"}
{"COMPOUND": "CC(C)Nc1cccnc1N1CCN(C(=O)c2cc3cc(NS(C)(=O)=O)ccc3[nH]2)CC1", "GROUP LABEL": "true (1)"}

Q: Name the outcome recorded for CCNC(=O)/C=C/c1cccc(Br)c1 in the assay.
Ans: false (0)

Q: And then CCCCN1C[C@H](O)[C@@H](O)[C@H](O)[C@H]1CO , what is it?
Ans: false (0)

Q: Now consider CC(C)n1c(/C=C/[C@@H](O)C[C@@H](O)CC(=O)O)c(-c2ccc(F)cc2)c2ccccc21 and answer again.
Ans: false (0)

Q: Try the compound O=C1OC2(c3ccccc31)c1cc(Br)c(O)c(Br)c1Oc1c2cc(Br)c(O)c1Br
Ans: true (1)

Q: Now try CCN(CC)CCOc1ccc2c(c1)C(=O)c1cc(OCCN(CC)CC)ccc1-2 .
Ans: false (0)

====

System: TAB165
METHOD DESCRIPTION: qHTS profiling for inhibitors of Plasmodium falciparum proliferation (AID 504749); note: nearly all actives have a fitted effect of over 60% in size
MEASUREMENT CONTEXT: P. falciparum in erythrocytes, SYBR Green DNA, 72 h; series mostly up to 28.7 µM
Inconclusive results are not listed. The source made the active and inactive calls. The call rests on the fitted dose curve; in most records, active means well fitted inhibition curve with a large enough effect; inconclusive means small, poorly fitted or top-dose-only effect; inactive means flat fitted curve, though single readings scatter.
Valid outcomes are listed here; reply with one: Y = active, N = inactive

{"MOLECULE": "OC(C#CCN1CCCC1)(c1ccccc1)c1ccccc1", "GROUP LABEL": "Y"}

Q: Name the outcome recorded for OC[C@H]1O[C@@H]2O[C@H]3[C@H](O)[C@@H](O)[C@@H](O[C@H]4[C@H](O)[C@@H](O)[C@@H](O[C@H]5[C@H](O)[C@@H](O)[C@@H](O[C@H]6[C@H](O)[C@@H](O)[C@@H](O[C@H]7[C@H](O)[C@@H](O)[C@@H](O[C@H]8[C@H](O)[C@@H](O)[C@@H](O[C@H]1[C@H](O)[C@H]2O)O[C@@H]8CO)O[C@@H]7CO)O[C@@H]6CO)O[C@@H]5CO)O[C@@H]4CO)O[C@@H]3CO in the assay.
Ans: N

Q: // query: CCCCCCCCCCCCCCCCO
Ans: N

Q: Now consider NC(N)=NN=C(/C=C/c1ccc([N+](=O)[O-])o1)/C=C/c1ccc([N+](=O)[O-])o1 .
Ans: Y

Q: Next entry: CCCCCN=C(N)N/N=C/c1c[nH]c2ccc(OC)cc12
Ans: Y

Q: Continue with O=C(CN1CCN(Cc2ccc3c(c2)OCO3)CC1)N1c2ccccc2Sc2ccccc21
Ans: Y

Q: Now consider CCCCC(CC)COC(=O)c1ccc(N(C)C)cc1 (centres undefined) and answer again.
Ans: N

Q: Same read-out for O=C(O)C(Cc1cc(I)c(O)c(I)c1)c1ccccc1 (centres undefined) ?
Ans: N

Q: Also, CCCCCCCCCCCCSCCOCCO please.
Ans: N

The measurements presented in this section are drawn from PubChem BioAssay (NCATS).
